The origin of these recorded values is ChEMBL document CHEMBL4689842.

- System: HEK-293T
- test: Multiplex assay against HEK293T;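 also: share of the cells with healthy nuclei that show this phenotype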
- Assay type: toxicity, cell-based
- protocol.conditions: human, 48 h, 1 µM, compound concentration 1 uM, replicate 2
Please assign label 0 whenever Population Tubulin-Different-Phenotype (%) is at or above 60%, and label 1 whenever it is below.

compound: Cc1csc2c(N[C@@H](C)CN3CCN(S(=O)(=O)c4ccc(Cl)c(Cl)c4)CC3)ncnc12
cat: label 0
--
compound: OC1(c2ccc(Cl)cc2)CCN(Cc2c[nH]c3ccccc23)CC1
cat: label 1
--
compound: CN(C)C(=O)N[C@H]1CC[C@H](CCN2CCN(c3cccc(Cl)c3Cl)CC2)CC1.Cl [CARIPRAZINE HYDROCHLORIDE]
cat: label 1
--
compound: CN1CCCC(n2nc(Cc3ccc(Cl)cc3)c3ccccc3c2=O)CC1.Cl (stereo unspecified) [AZELASTINE HYDROCHLORIDE]
cat: label 0
--
compound: O=C1NCN(c2ccccc2)C12CCN(CCCOc1ccc(F)cc1)CC2 [SPIRAMIDE]
cat: label 1
--
compound: CN(C)CC#Cc1ccc(OCCCc2sc(N3CCc4cccc(C(=O)Nc5nc6ccccc6s5)c4C3)nc2C(=O)O)c(F)c1 [A-1155463]
cat: label 1
--
compound: CC[C@H](C)C(=O)O[C@H]1C[C@@H](C)C=C2C=C[C@H](C)[C@H](CC[C@@H]3C[C@@H](O)CC(=O)O3)[C@H]21 [LOVASTATIN]
cat: label 1
--
compound: C[C@@H](NCCCc1cccc(C(F)(F)F)c1)c1cccc2ccccc12.Cl [CINACALCET HYDROCHLORIDE]
cat: label 1
--
compound: Cl.N#Cc1ccc2[nH]cc(CCCCN3CCN(c4ccc5oc(C(N)=O)cc5c4)CC3)c2c1 [VILAZODONE HYDROCHLORIDE]
cat: label 1
--
compound: Cn1cc(-c2[nH]c3cc(NC(=O)[C@H](N)C4CCCCC4)cc4c3c2C=NNC4=O)cn1
cat: label 0
--
compound: Cc1cc(C)cc(-c2cnc3cc(Cl)c(-c4cccc(O)c4)cc3c2OCCCN)c1
cat: label 0
--
compound: CC(C)(O)CNc1ncc(-c2ccnc(Nc3ccnc(Cl)c3)n2)c(CC2CC2)n1
cat: label 1
--
compound: C=CC(=O)Nc1cccc(C(=O)Nc2ccc(Nc3cc(-c4[nH]c(SC)nc4C)ccn3)cc2)c1
cat: label 1
--
compound: Cc1[nH]c(/C=C2\C(=O)Nc3ccc(S(=O)(=O)N(C)c4cccc(Cl)c4)cc32)c(C)c1C(=O)N1CCN(C)CC1
cat: label 1
--
compound: COc1cccc([C@@H](C)NCCCc2ccccc2Cl)c1.Cl [TECALCET HYDROCHLORIDE]
cat: label 1
